Target: mushroom tyrosinase (Agaricus bisporus, UniProt C7FF04)
Construct: purchased
Sequence (C7FF04 1-392): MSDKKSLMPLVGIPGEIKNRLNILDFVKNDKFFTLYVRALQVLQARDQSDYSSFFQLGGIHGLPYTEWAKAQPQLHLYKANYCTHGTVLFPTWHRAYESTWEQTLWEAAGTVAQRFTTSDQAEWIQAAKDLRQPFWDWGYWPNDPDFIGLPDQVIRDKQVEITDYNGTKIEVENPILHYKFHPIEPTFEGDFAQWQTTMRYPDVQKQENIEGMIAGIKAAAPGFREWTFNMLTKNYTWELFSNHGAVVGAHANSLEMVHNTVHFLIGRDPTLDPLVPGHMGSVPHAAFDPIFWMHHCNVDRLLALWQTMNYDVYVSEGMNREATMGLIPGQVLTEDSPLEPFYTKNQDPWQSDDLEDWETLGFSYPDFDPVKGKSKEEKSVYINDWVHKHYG
Test: Kinetic studies of mushroom tyrosinase inhibition (Lineweaver–Burk and Dixon plots)
Format: biochemical
Conditions: Dixon plots; substrate L-dopa; read-out: inhibition constant (Ki) for the mushroom tyrosinase–inhibitor complex
pKi: −log10 of the molar value.
Recorded endpoint: pKi

I = O=C1N=C(NCc2ccccc2)S/C1=C\c1ccc(O)cc1O
II = COc1ccc(/C=C2\SC(NCc3ccccc3)=NC2=O)cc1O
Please choose the item with the lower pKi value from this pair: I and II Provide the label of your selected option as the answer. II

----------
Molecular target: mushroom tyrosinase
Experiment: Mushroom tyrosinase inhibition assay
Assay type: biochemical
Details: substrate L-tyrosine; mean ± SEM of three experiments; read-out: IC50 (µM) L-Tyrosine
Recorded endpoint: IC50 (µM)

P = COc1cc(/C=C2\SC(NCc3ccccc3)=NC2=O)ccc1O
Q = O=C1N=C(NCc2ccccc2)S/C1=C\c1ccc(O)cc1O
Hi, I'm comparing two records. Which one has the lower IC50, P or Q ? Respond with the label that goes with your answer. Q
(Q: 0.27 µM, P: 148 µM)

P = CCOc1cc(/C=C2\SC(NCc3ccccc3)=NC2=O)ccc1O
Q = COc1ccc(/C=C2\SC(NCc3ccccc3)=NC2=O)c(OC)c1
Of P and Q , which shows the smaller IC50 value? Give the label under which the chosen entry appears. P

----------
Target: mushroom tyrosinase
Experiment: Mushroom tyrosinase inhibition assay
Format: biochemical
Settings: substrate L-dopa; mean ± SEM of three experiments; read-out: IC50 (µM) L-Dopa
Recorded endpoint: IC50 (µM)

Please review the following examples before continuing.
COc1cc(/C=C2\SC(NCc3ccccc3)=NC2=O)cc(OC)c1OC; 231
O=C1N=C(NCc2ccccc2)S/C1=C\c1ccc(O)cc1; 65.1
COc1ccc(/C=C2\SC(NCc3ccccc3)=NC2=O)c(OC)c1; 214
COc1ccc(/C=C2\SC(NCc3ccccc3)=NC2=O)cc1; 239

A = COc1ccc(/C=C2\SC(NCc3ccccc3)=NC2=O)cc1O
B = CCOc1cc(/C=C2\SC(NCc3ccccc3)=NC2=O)ccc1O
C = O=C1N=C(NCc2ccccc2)S/C1=C\c1ccc(O)cc1O
Rank ascending by IC50. When ranking, write the labels in the order the request describes. C, A, B
(C: 1.04 µM, A: 10.3 µM, B: 248 µM)

----------
Molecular target: mushroom tyrosinase
Assay: Mushroom tyrosinase inhibition assay
Type: biochemical
Settings: substrate L-tyrosine; mean ± SEM of three experiments; read-out: IC50 (µM) L-Tyrosine
Recorded endpoint: IC50 (µM)

COc1cc(/C=C2\SC(NCc3ccccc3)=NC2=O)cc(OC)c1O; 166
COc1cc(/C=C2\SC(NCc3ccccc3)=NC2=O)cc(OC)c1OC; 192

----------
Target: mushroom tyrosinase
Assay: Mushroom tyrosinase inhibition assay
Format: biochemical
Conditions: substrate L-tyrosine; mean ± SEM of three experiments; read-out: IC50 (µM) L-Tyrosine
Recorded endpoint: IC50

// below: answered molecules
O=C1N=C(NCc2ccccc2)S/C1=C\c1ccc(O)c(O)c1 [Compound 9]; > 300 µM
O=C1N=C(NCc2ccccc2)S/C1=C\c1ccc(F)cc1F [Compound 3]; > 300 µM

Given the molecule COc1ccc(/C=C2\SC(NCc3ccccc3)=NC2=O)cc1OC [Compound 11] , what is its reported IC50? > 300 µM
